Hello, the source for this data is patent US7951799B2, in case you need it.

Test system: MDCK cells
Assay: Evaluation of membrane permeability using MDCK cells
Settings: MDCK monolayer; mucous membrane side (pH 6.5) to basal membrane side (pH 7.4); 37° C.

molecule | Permeation coefficient
O=C1NCC2=C1[C@@H](c1cccc3ccoc13)N(C(=O)CO)[C@@H]1CCCC[C@H]1N2 [Example 1] | 8 10^−7 cm/sec
COCC(=O)N1[C@@H]2CCCC[C@H]2NC2=C(C(=O)NC2)[C@H]1c1cccc2cc[nH]c12 [Example 5] | 20 10^−7 cm/sec
C=Cc1ccccc1[C@@H]1C2=C(CNC2=O)N[C@@H]2CCCC[C@H]2N1C(=O)CO [Example 19] | 10 10^−7 cm/sec
COCC(=O)N1[C@@H]2CCCC[C@H]2NC2=C(C(=O)NC2)[C@H]1c1cccc2cc(C)[nH]c12 [Example 12] | 20 10^−7 cm/sec
Cc1cc2cccc([C@@H]3C4=C(CNC4=O)N[C@@H]4CCCC[C@H]4N3C(=O)CO)c2o1 [Example 9] | 40 10^−7 cm/sec
O=C1NCC2=C1[C@@H](c1cccc3ccoc13)N(C(=O)C(F)F)[C@@H]1CCCC[C@H]1N2 [Example 6] | 8 10^−7 cm/sec
